Tested on: 349418-098-R-PDC complex spheroid growth
Experiment: Anticancer human tumor 349418-098-R-PDC patient-derived lung adenocarcinoma cell line growth inhibition [AhR]
Settings: second compound 0.316 µM; first compound 0.00316 µM; hits give low values
property.measured: viability, T/C (%)
Numeric answer only, unit % assumed.

Please fill in: viability, T/C reported for Nc1ncn(C2CC(O)C(CO)O2)c(=O)n1 (stereo unspecified) + Cc1cncc(-c2nc(NCCc3c[nH]c4ccccc34)c3ncn(C(C)C)c3n2)c1 = 93

Please fill in: viability, T/C reported for CC1COCCN1c1cc(-c2ccnn2C)c2ccnc(-c3ccn[nH]3)c2n1 (stereo unspecified) + CC(CO)NC(=O)c1cc(-c2ccc(Cl)cc2)nn(-c2cnn(C)c2)c1=O = 87.4

Please fill in: viability, T/C reported for CC[C@@]1(O)C(=O)OCc2c1cc1n(c2=O)Cc2cc3c(CN(C)C)c(O)ccc3nc2-1 + Cc1cncc(-c2nc(NCCc3c[nH]c4ccccc34)c3ncn(C(C)C)c3n2)c1 = 86.4

Please fill in: viability, T/C reported for CC[C@@]1(O)C(=O)OCc2c1cc1n(c2=O)Cc2cc3c(CN(C)C)c(O)ccc3nc2-1 + CC(CO)NC(=O)c1cc(-c2ccc(Cl)cc2)nn(-c2cnn(C)c2)c1=O = 87.8

Please fill in: viability, T/C reported for Nc1ncn(C2CC(O)C(CO)O2)c(=O)n1 (stereo unspecified) + CC(CO)NC(=O)c1cc(-c2ccc(Cl)cc2)nn(-c2cnn(C)c2)c1=O = 108

Please fill in: viability, T/C reported for CC[C@@]1(O)C(=O)OCc2c1cc1n(c2=O)Cc2cc3c(CN(C)C)c(O)ccc3nc2-1 + Cc1ccccc1N=Nc1ccc(NC(=O)c2ccnn2C)c(C)c1 = 98.5

* * *

Exercise: for every item that follows, state its recorded viability, T/C.
Tested on: 349418-098-R-PDC complex spheroid growth
Test: Anticancer human tumor 349418-098-R-PDC cell line growth inhibition [AhR];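 note: spheroids also contain HUVEC endothelial cells and human MSC stroma; spheroids exposed to agents for seven days before luminescence viability read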
Details: second compound 3.16 µM; first compound 10 µM; hits give low values

Please fill in: viability, T/C reported for CC(C)c1c(-c2ccccc2)nc2c(C#N)c[nH]n2c1=O + Cc1cncc(-c2nc(NCCc3c[nH]c4ccccc34)c3ncn(C(C)C)c3n2)c1 = 12.6%

Please fill in: viability, T/C reported for COc1cc(Nc2ncc3c(n2)-c2ccc(Cl)cc2C(c2c(F)cccc2OC)=NC3)ccc1C(=O)O + Cc1ccccc1N=Nc1ccc(NC(=O)c2ccnn2C)c(C)c1 = 26.6%

Please fill in: viability, T/C reported for Nc1ccn(C2OC(CO)C(O)C2(F)F)c(=O)n1 (stereo not drawn) + CC(CO)NC(=O)c1cc(-c2ccc(Cl)cc2)nn(-c2cnn(C)c2)c1=O = 7.72%

* * *

System: 349418-098-R-PDC complex spheroid growth
Assay: Anticancer human tumor 349418-098-R-PDC cell line growth inhibition [AhR]; active = viability on the fitted dose curve at most 10% of control; inactive = the rest;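 note: spheroids also contain HUVEC endothelial cells and human MSC stroma; spheroids exposed to agents for seven days before luminescence viability read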
Conditions: second compound 10 µM; first compound 0.000949 µM
Bench note: report the call from true = active, false = inactive

Enquiry: In this assay, the call recorded for Nc1ncn(C2CC(O)C(CO)S2)c(=O)n1 (centres undefined) + CC(CO)NC(=O)c1cc(-c2ccc(Cl)cc2)nn(-c2cnn(C)c2)c1=O was what?
Return: false

Enquiry: In this assay, the call recorded for CCc1c2c(nc3ccc(O)cc13)-c1cc3c(c(=O)n1C2)COC(=O)[C@]3(O)CC + Cc1cncc(-c2nc(NCCc3c[nH]c4ccccc34)c3ncn(C(C)C)c3n2)c1 was what?
Return: true

Enquiry: In this assay, the call recorded for CC(C)CC(NC(=O)C(Cc1ccccc1)NC(=O)c1cnccn1)B(O)O (centres undefined) + Cc1ccccc1N=Nc1ccc(NC(=O)c2ccnn2C)c(C)c1 was what?
Return: false

Enquiry: In this assay, the call recorded for CC(C)CC(NC(=O)C(Cc1ccccc1)NC(=O)c1cnccn1)B(O)O (centres undefined) + Cc1cncc(-c2nc(NCCc3c[nH]c4ccccc34)c3ncn(C(C)C)c3n2)c1 was what?
Return: true

Enquiry: In this assay, the call recorded for Nc1ncn(C2CC(O)C(CO)S2)c(=O)n1 (centres undefined) + Cc1ccccc1N=Nc1ccc(NC(=O)c2ccnn2C)c(C)c1 was what?
Return: false

Enquiry: In this assay, the call recorded for Nc1ncn(C2CC(O)C(CO)S2)c(=O)n1 (centres undefined) + Cc1cncc(-c2nc(NCCc3c[nH]c4ccccc34)c3ncn(C(C)C)c3n2)c1 was what?
Return: true

Enquiry: In this assay, the call recorded for CCc1c2c(nc3ccc(O)cc13)-c1cc3c(c(=O)n1C2)COC(=O)[C@]3(O)CC + Cc1ccccc1N=Nc1ccc(NC(=O)c2ccnn2C)c(C)c1 was what?
Return: false

Enquiry: In this assay, the call recorded for CCc1c2c(nc3ccc(O)cc13)-c1cc3c(c(=O)n1C2)COC(=O)[C@]3(O)CC + CC(CO)NC(=O)c1cc(-c2ccc(Cl)cc2)nn(-c2cnn(C)c2)c1=O was what?
Return: false

Enquiry: In this assay, the call recorded for CC(C)CC(NC(=O)C(Cc1ccccc1)NC(=O)c1cnccn1)B(O)O (centres undefined) + CC(CO)NC(=O)c1cc(-c2ccc(Cl)cc2)nn(-c2cnn(C)c2)c1=O was what?
Return: false

* * *

Tested on: 349418-098-R-PDC complex spheroid growth
Experiment: Anticancer human tumor 349418-098-R-PDC cell line growth inhibition [AhR]; active = viability on the fitted dose curve at most 10% of control; inactive = the rest;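 note: spheroids also contain HUVEC endothelial cells and human MSC stroma; spheroids exposed to agents for seven days before luminescence viability read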
Conditions: second compound 3.16 µM; first compound 10 µM
Bench note: report the call from active, inactive

Enquiry: In this assay, the call recorded for O=C(c1cc(Cc2n[nH]c(=O)c3ccccc23)ccc1F)N1CCN(C(=O)C2CC2)CC1 + Cc1ccccc1N=Nc1ccc(NC(=O)c2ccnn2C)c(C)c1 was what?
Return: inactive

Enquiry: In this assay, the call recorded for O=C(C=Cc1cccc(S(=O)(=O)Nc2ccccc2)c1)NO + Cc1cncc(-c2nc(NCCc3c[nH]c4ccccc34)c3ncn(C(C)C)c3n2)c1 was what?
Return: active

Enquiry: In this assay, the call recorded for Nc1ccccc1NC(=O)c1ccc(CNC(=O)OCc2cccnc2)cc1 + Cc1ccccc1N=Nc1ccc(NC(=O)c2ccnn2C)c(C)c1 was what?
Return: active

Enquiry: In this assay, the call recorded for CC(C)c1c(-c2ccccc2)nc2c(C#N)c[nH]n2c1=O + Cc1ccccc1N=Nc1ccc(NC(=O)c2ccnn2C)c(C)c1 was what?
Return: inactive

Enquiry: In this assay, the call recorded for O=C(C=Cc1cccc(S(=O)(=O)Nc2ccccc2)c1)NO + CC(CO)NC(=O)c1cc(-c2ccc(Cl)cc2)nn(-c2cnn(C)c2)c1=O was what?
Return: active

Enquiry: In this assay, the call recorded for NS(=O)(=O)OCC1CC(n2ccc3c(NC4CCc5ccccc54)ncnc32)CC1O (stereo unspecified) + Cc1cncc(-c2nc(NCCc3c[nH]c4ccccc34)c3ncn(C(C)C)c3n2)c1 was what?
Return: active

* * *

Test system: 349418-098-R-PDC complex spheroid growth
Assay: Anticancer human tumor 349418-098-R-PDC cell line growth inhibition [AhR];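 note: spheroids also contain HUVEC endothelial cells and human MSC stroma; spheroids exposed to agents for seven days before luminescence viability read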
Conditions: second compound 0.1 µM; first compound 0.000949 µM; hits give low values
Classification by viability, T/C follows these ranges: lo = under 50%, med = from 50% up to 90%, hi = 90% and over

Enquiry: Form: Item = Nc1ncn(C2CC(O)C(CO)S2)c(=O)n1 (centres undefined) + Cc1ccccc1N=Nc1ccc(NC(=O)c2ccnn2C)c(C)c1 ; Class = ?
Return: hi

Enquiry: Form: Item = CC(C)CC(NC(=O)C(Cc1ccccc1)NC(=O)c1cnccn1)B(O)O (centres undefined) + Cc1ccccc1N=Nc1ccc(NC(=O)c2ccnn2C)c(C)c1 ; Class = ?
Return: lo

Enquiry: Form: Item = CC(C)CC(NC(=O)C(Cc1ccccc1)NC(=O)c1cnccn1)B(O)O (centres undefined) + Cc1cncc(-c2nc(NCCc3c[nH]c4ccccc34)c3ncn(C(C)C)c3n2)c1 ; Class = ?
Return: med

Enquiry: Form: Item = Nc1ncn(C2CC(O)C(CO)S2)c(=O)n1 (centres undefined) + CC(CO)NC(=O)c1cc(-c2ccc(Cl)cc2)nn(-c2cnn(C)c2)c1=O ; Class = ?
Return: med

Enquiry: Form: Item = CCc1c2c(nc3ccc(O)cc13)-c1cc3c(c(=O)n1C2)COC(=O)[C@]3(O)CC + CC(CO)NC(=O)c1cc(-c2ccc(Cl)cc2)nn(-c2cnn(C)c2)c1=O ; Class = ?
Return: lo

Enquiry: Form: Item = CC(C)CC(NC(=O)C(Cc1ccccc1)NC(=O)c1cnccn1)B(O)O (centres undefined) + CC(CO)NC(=O)c1cc(-c2ccc(Cl)cc2)nn(-c2cnn(C)c2)c1=O ; Class = ?
Return: lo

Enquiry: Form: Item = CCc1c2c(nc3ccc(O)cc13)-c1cc3c(c(=O)n1C2)COC(=O)[C@]3(O)CC + Cc1ccccc1N=Nc1ccc(NC(=O)c2ccnn2C)c(C)c1 ; Class = ?
Return: med

Enquiry: Form: Item = Nc1ncn(C2CC(O)C(CO)S2)c(=O)n1 (centres undefined) + Cc1cncc(-c2nc(NCCc3c[nH]c4ccccc34)c3ncn(C(C)C)c3n2)c1 ; Class = ?
Return: hi
